What molar heat capacity at constant pressure was measured for each of the following?
test: molar heat capacity at constant pressure; conditions: 218.15 K; 101.33 kPa; Crystal; Small sample (50 mg) DSC
Numbers only, in J/K/mol.

Some entries whose results are on file:
# molecule, unit, test.value
records = [
    ("O[C@H]1[C@H](O)[C@@H](O)[C@H](O)[C@@H](O)[C@H]1O [cis-1,2,3,5-trans-4,6-cyclohexanehexol]", "J/K/mol", 157.24),
    ("OC[C@@H](O)C(O)[C@H](O)CO", "J/K/mol", 147.07),
    ("OC[C@@H](O)[C@H](O)[C@@H](O)CO", "J/K/mol", 153.29),
    ("OC[C@@H](O)[C@@H](O)[C@H](O)[C@H](O)CO", "J/K/mol", 170.94),
]

Quick batch: molar heat capacity at constant pressure for everything below.
1. OC[C@H](O)C(O)[C@@H](O)CO [L-(-)-arabitol]
2. OC[C@@H](O)[C@@H](O)CO

Result:
[152.05, 122.56]

----------
Assign molar heat capacity at constant pressure to each entry below.
assay: molar heat capacity at constant pressure; conditions: 214.15 K; 101.33 kPa; Crystal; Small sample (50 mg) DSC
Give bare numbers, in J/K/mol.

# molecule, unit, molar heat capacity at constant pressure
measured = [
    ("OC[C@@H](O)[C@@H](O)[C@H](O)[C@H](O)CO", "J/K/mol", 167.92),
    ("OC[C@@H](O)[C@H](O)[C@@H](O)CO", "J/K/mol", 150.56),
    ("O[C@H]1[C@H](O)[C@@H](O)[C@H](O)[C@@H](O)[C@H]1O [cis-1,2,3,5-trans-4,6-cyclohexanehexol]", "J/K/mol", 154.05),
]

For each listed entry, give its molar heat capacity at constant pressure.
1. OC[C@@H](O)C(O)[C@H](O)CO
2. OC[C@H](O)C(O)[C@@H](O)CO [L-(-)-arabitol]
3. OC[C@@H](O)[C@@H](O)CO

Result:
[144.41, 149.06, 120.6]

----------
For each entry below, report its molar heat capacity at constant pressure value.
assay: molar heat capacity at constant pressure; conditions: 90 K; 101.33 kPa; Crystal; relaxation calorimetry
Give bare numbers, in J/K/mol.

Worked set:
# compound, molar heat capacity at constant pressure (J/K/mol)
measured = [
    ("O[C@H]1[C@H](O)[C@@H](O)[C@H](O)[C@@H](O)[C@H]1O [cis-1,2,3,5-trans-4,6-cyclohexanehexol]", 63.21),
    ("OC[C@@H](O)[C@@H](O)CO", 57.74),
    ("OC[C@@H](O)C(O)[C@H](O)CO", 70.37),
    ("OC[C@H](O)C(O)[C@@H](O)CO [L-(-)-arabitol]", 70.7),
]

Count: 2. Required value per item: molar heat capacity at constant pressure.
1. OC[C@@H](O)[C@@H](O)[C@H](O)[C@H](O)CO
2. OC[C@@H](O)[C@H](O)[C@@H](O)CO

Result:
1. 79.54
2. 68.78

----------
Please go through the items and note down their molar entropy.
details: 90 K; 101.33 kPa; Crystal; relaxation calorimetry
± gives the expanded uncertainty stated by the source.

# molecule, molar entropy
records = [
    ("OC[C@@H](O)[C@@H](O)CO", "43.44 ± 4 J/K/mol"),
    ("OC[C@@H](O)[C@@H](O)[C@H](O)[C@H](O)CO", "57.61 ± 5.3 J/K/mol"),
    ("O[C@H]1[C@H](O)[C@@H](O)[C@H](O)[C@@H](O)[C@H]1O [cis-1,2,3,5-trans-4,6-cyclohexanehexol]", "46.76 ± 4.3 J/K/mol"),
    ("OC[C@H](O)C(O)[C@@H](O)CO [L-(-)-arabitol]", "51.04 ± 4.7 J/K/mol"),
    ("OC[C@@H](O)[C@H](O)[C@@H](O)CO", "47.82 ± 4.4 J/K/mol"),
]

Just so you know, measured molar entropy for OC[C@@H](O)C(O)[C@H](O)CO came out at 50.61 ± 4.6 J/K/mol
